# assayed target: BACE1 enzyme (Homo sapiens, UniProt P56817)
# Construct: transfected with a soluble BACE construct (BACE1deltaTM96His); His (C); made in house; host or cells: CHO-K1 cells (secreted into conditioned media)
# Sequence (P56817 46-457 limits assumed): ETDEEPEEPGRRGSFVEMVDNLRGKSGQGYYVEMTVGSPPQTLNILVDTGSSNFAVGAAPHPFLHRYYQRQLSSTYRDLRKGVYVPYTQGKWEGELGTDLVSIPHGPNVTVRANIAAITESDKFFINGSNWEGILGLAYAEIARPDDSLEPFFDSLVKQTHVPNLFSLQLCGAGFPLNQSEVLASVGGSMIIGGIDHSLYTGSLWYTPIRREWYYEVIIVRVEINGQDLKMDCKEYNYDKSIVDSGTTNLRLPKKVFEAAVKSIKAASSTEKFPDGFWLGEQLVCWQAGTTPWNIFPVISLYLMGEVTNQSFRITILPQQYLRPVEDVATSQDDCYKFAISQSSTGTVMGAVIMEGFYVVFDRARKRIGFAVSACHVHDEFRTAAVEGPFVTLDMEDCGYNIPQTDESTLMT
# test name: BACE1 Cell-Free Assay (fluorescence polarization, cleavage of synthetic APP substrate)
# Format: biochemical
# condition info: geometric mean of 2-4 determinations unless otherwise indicated (b: ≥5 determinations; c: single determination); 0.1 nM BACE1, 150 nM peptide substrate, pH 4.5, 3 hours at 37° C.
observed property: IC50 (nM)

compound: Cc1cc(OC(F)F)cnc1C(=O)Nc1csc([C@]23COC(C)(C)C[C@H]2CSC(N)=N3)n1
readout value: 47
//
compound: CC[C@@]1(C)C[C@@H]2CSC(N)=N[C@]2(c2nc(NC(=O)c3ccc(OC(F)F)cn3)cs2)CO1
readout value: 406

P. CC1(C)C[C@@H]2CSC(N)=N[C@]2(c2nc(NC(=O)c3ccc(OC(F)F)cn3)cs2)CO1 (single isomer, unassigned)
Q. CC(F)(F)COc1cnc(C(=O)Nc2csc([C@@]34COC(C)(C)C[C@@H]3CSC(N)=N4)n2)cn1 (single isomer, unassigned)
Given the listed records, identify the one among P and Q with higher IC50. Give the label of your selection.
Q

a. CC1(C)C[C@@H]2CSC(N)=N[C@]2(c2nc(NC(=O)c3cnc(OC(F)F)cn3)cs2)CO1 (single isomer, unassigned)
b. CC[C@@]1(C)C[C@H]2CSC(N)=N[C@@]2(c2nc(NC(=O)C3C4CC3C4)cs2)CO1 (stereo partly shown)
Given the listed records, identify the one among a and b with higher IC50. Give the label of your selection.
a
(a: 7950 nM, b: 177 nM)
